// data source = patent US9890192B2

Tested on: mitochondrial membrane
Test: Quantitative mass spectrometry of AMT peptide conjugates permeating the mitochondrial membrane
Assay type: cell-based
Settings: relative quantification of conjugate at the target site
Where a SMILES comes first, the peptide text is derived from it. [ ]: non-standard residue; d: D form. The star is where a group is joined. ξ: configuration not given here. Cbz = O=C(OCc1ccccc1)*; Boc = CC(C)(C)OC(=O)*; ξOrn = NCCCC(N)C(=O)O; X1 = CC1CCN=C(N*)S1
Each entry below lists one item and its recorded fmole/10 μM mitochondrial protein value.

>  <Molecule>
CC(C)C[C@@H](/C=C/[C@H](Cc1ccccc1)C(=O)NC1=NCCC(C)S1)NC(=O)OC(C)(C)C (stereo partly drawn) [XJB-5-234, Boc-Leu-[ψ(E)-CH═CH]-^DPhe-AMT]

>  <Target entity>
mitochondrial membrane

>  <fmole/10 μM mitochondrial protein>
1.45 fmole/10 μM mitochondrial protein

$$$$
>  <Molecule>
C/C(=C\[C@H](Cc1ccccc1)C(=O)N1CCC[C@H]1C(=O)N[C@H](C(=O)NC(CCCNC(=O)OCc1ccccc1)C(=O)NC1=NCCC(C)S1)C(C)C)[C@H](CC(C)C)NC(=O)OC(C)(C)C (stereo partly shown) [XJB-5-241]

>  <Target entity>
mitochondrial membrane

>  <fmole/10 μM mitochondrial protein>
103.3 fmole/10 μM mitochondrial protein

$$$$
>  <Molecule>
CC(C)C[C@H](NC(=O)OC(C)(C)C)C(=O)N[C@H](Cc1ccccc1)C(=O)N1CCC[C@H]1C(=O)N[C@H](C(=O)NC(CCCNC(=O)OCc1ccccc1)C(=O)NC1=NCCC(C)S1)C(C)C (stereo partly drawn) [XJB-5-127, Boc-Leu-^DPhe-Pro-Val-Orn(Cbz)-AMT] (Boc-L[dF]PV[ξOrn](Cbz)-X1)

>  <Target entity>
mitochondrial membrane

>  <fmole/10 μM mitochondrial protein>
50.8 fmole/10 μM mitochondrial protein

$$$$
>  <Molecule>
CC(C)C[C@@H](/C=C/[C@H](Cc1ccccc1)C(=O)N1CCC[C@H]1C(=O)N[C@H](C(=O)N[C@@H](CCCNC(=O)OCc1ccccc1)C(=O)NC1=NCCC(C)S1)C(C)C)NC(=O)OC(C)(C)C (stereo partly shown) [XJB-5-133]

>  <Target entity>
mitochondrial membrane

>  <fmole/10 μM mitochondrial protein>
89.8 fmole/10 μM mitochondrial protein

$$$$
